# target of assay: Aldo-keto reductase family 1 member C1 (Homo sapiens)
# Sequence (Q04828 whole entry): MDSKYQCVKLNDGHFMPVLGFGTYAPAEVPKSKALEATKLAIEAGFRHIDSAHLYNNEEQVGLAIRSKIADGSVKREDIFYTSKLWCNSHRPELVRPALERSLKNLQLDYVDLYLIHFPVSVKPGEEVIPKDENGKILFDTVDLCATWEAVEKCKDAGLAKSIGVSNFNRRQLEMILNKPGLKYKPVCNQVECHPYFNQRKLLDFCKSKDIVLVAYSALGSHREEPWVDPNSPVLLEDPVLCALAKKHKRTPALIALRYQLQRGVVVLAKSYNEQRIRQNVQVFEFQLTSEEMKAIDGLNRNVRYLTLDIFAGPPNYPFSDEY
# test details: Inhibition of human recombinant AKR1C1 assessed as 1-acenaphthenol oxidation by spectrophotometry
What Ki was measured for each of the following?
Provide the reading as a plain figure in µM.

Enquiry: Bench note: what Ki did O=CN1CCN(C(=O)c2ccc3ccccc3c2)CC1 show?
Return: 64

Enquiry: Can you share its Ki? I mean this compound: Cc1oc(C(N)=O)cc1COc1ccccc1C(N)=O
Return: 122

Enquiry: Which Ki value belongs to O=C(CSc1ncnc2[nH]cnc12)Nc1ccccn1 ?
Return: 69

* * *

What pIC50 was measured for each of the following?
# target of assay: Aldo-keto reductase family 1 member C3 (Homo sapiens)
# Sequence (P42330 whole entry): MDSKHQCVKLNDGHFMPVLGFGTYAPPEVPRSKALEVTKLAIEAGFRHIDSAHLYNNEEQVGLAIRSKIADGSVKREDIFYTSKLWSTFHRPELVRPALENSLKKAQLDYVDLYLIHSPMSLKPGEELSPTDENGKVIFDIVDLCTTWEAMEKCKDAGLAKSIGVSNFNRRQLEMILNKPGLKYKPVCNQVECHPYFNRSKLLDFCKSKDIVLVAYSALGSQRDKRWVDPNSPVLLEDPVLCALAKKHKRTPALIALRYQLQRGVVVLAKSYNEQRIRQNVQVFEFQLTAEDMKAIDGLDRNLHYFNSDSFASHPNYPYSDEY
# test details: Inhibition of human recombinant AKR1C3 assessed as S-tetralol oxidation by micro plate fluorescence reader based assay
Bear in mind: pIC50 is minus log10 of a mol/L concentration; give just that figure.

Enquiry: Field request: pIC50 | item: O=C(CC1SC(=O)NC1=O)Nc1ccccc1O (configuration not stated)
Return: 6.67

Enquiry: I would be grateful if you could share the reported pIC50 for O=C1CCC2(c3ccccc3)Nc3ccccc3N12 (configuration not stated) .
Return: 5.26

* * *

# target of assay: Aldo-keto reductase family 1 member C3 (Homo sapiens, UniProt P42330)
# Sequence (P42330 whole entry): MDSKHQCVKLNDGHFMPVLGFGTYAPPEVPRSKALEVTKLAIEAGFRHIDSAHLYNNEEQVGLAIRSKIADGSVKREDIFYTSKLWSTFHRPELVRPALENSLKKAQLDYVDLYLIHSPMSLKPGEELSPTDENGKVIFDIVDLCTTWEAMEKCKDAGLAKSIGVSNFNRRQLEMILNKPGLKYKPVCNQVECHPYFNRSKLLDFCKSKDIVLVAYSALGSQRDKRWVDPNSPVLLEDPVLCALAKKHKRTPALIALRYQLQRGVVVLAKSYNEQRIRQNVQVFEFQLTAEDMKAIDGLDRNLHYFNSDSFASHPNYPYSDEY
# test details: Competitive inhibition of human recombinant AKR1C3 assessed as S-tetralol oxidation by Cheng-Prusoff equation analysis
readout: Ki (µM)
Report as a plain number; the unit µM is understood.

Enquiry: Can you look up Ki on Aldo-keto reductase family 1 member C3 (Homo sapiens, UniProt P42330) for O=C(CC1SC(=O)NC1=O)Nc1ccccc1O (configuration not stated) ?
Return: 0.107

Enquiry: Form entry - test system: Aldo-keto reductase family 1 member C3 (Homo sapiens, UniProt P42330); read-out: Ki; compound: O=C1CCC2(c3ccccc3)Nc3ccccc3N12 (configuration not stated)
Return: 2.73

* * *

# target of assay: Aldo-keto reductase family 1 member C3 (Homo sapiens)
# Sequence (P42330 whole entry): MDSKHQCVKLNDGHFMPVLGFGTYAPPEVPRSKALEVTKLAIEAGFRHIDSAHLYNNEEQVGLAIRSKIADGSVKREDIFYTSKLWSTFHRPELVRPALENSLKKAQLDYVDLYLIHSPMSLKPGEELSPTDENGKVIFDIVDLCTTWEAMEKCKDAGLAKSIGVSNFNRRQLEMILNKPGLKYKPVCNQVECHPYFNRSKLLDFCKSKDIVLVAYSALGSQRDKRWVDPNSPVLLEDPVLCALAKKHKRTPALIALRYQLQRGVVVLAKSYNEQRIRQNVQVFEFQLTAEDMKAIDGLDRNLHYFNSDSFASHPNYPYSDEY
# test details: Inhibition of human recombinant AKR1C3 assessed as 1-acenaphthenol oxidation by spectrophotometry
Provide the recorded pKi for the entries that follow.
Here pKi is given on a logarithmic scale as minus log10 of the concentration in mol/L.

Enquiry: // lookup pKi for O=C(NCc1cc(=O)[nH]cn1)c1cc2ccccn2n1
Return: 3.93

Enquiry: For the compound shown here, CN(c1ccc(C(=O)O)cc1)S(=O)(=O)c1ccccc1 , give the reported pKi.
Return: 3.83

Enquiry: Consider the compound CC(=O)Nc1ccc(C(C#N)c2ccccc2)cc1 (stereo not drawn) and give its measured pKi.
Return: 4.06

* * *

# target of assay: Aldo-keto reductase family 1 member C3 (Homo sapiens) (UniProt P42330)
# test details: Inhibition of human recombinant AKR1C3 assessed as 1-acenaphthenol oxidation at 400 uM by spectrophotometry
So I've got a bunch of molecules here, and I need their inhibition values.
I only need the number, in %, no unit after it.

Enquiry: Look up inhibition for this molecule: O=CN1CCN(C(=O)c2ccc3ccccc3c2)CC1
Return: 46.7

Enquiry: May I ask what inhibition has been recorded for O=C(CSc1ncnc2[nH]cnc12)Nc1ccccn1 ?
Return: 44.3

Enquiry: GET /values?readout=inhibition&item= O=C(O)CNC=C1C(=O)CC(c2ccccc2)CC1=O (centres undefined)
Return: 18.4

Enquiry: Please give the measured inhibition for this molecule: Cc1ccc(NC(=O)c2cccnc2)c(C(=O)O)c1
Return: 33.1

Enquiry: For the molecule shown here, Cc1cccc(C(=O)Nc2ccccc2C(N)=O)c1 , give the reported inhibition.
Return: 10.8

Enquiry: Requested field: inhibition. Item: Cc1oc(C(N)=O)cc1COc1ccccc1C(N)=O
Return: 53.4

Enquiry: Returns the measured inhibition for the input molecule. Input: O=C(O)c1cc(NC(=O)c2ccccc2F)ccc1O
Return: 48.8

Enquiry: Returns the measured inhibition for the input molecule. Input: NC(=O)c1ccccc1NC(=O)c1ccncc1
Return: 17.8

Enquiry: Dear colleague, I am looking for the recorded inhibition of the following molecule: O=C(O)c1ccc(CNCc2ccccn2)cc1
Return: 51.2
